Origin of values: patent US20040067531A1

// reported IC50 per item
Tested on: 3T3 cell line genetically engineered to express human PDGF-R
test description: PDGF-induced BrdU incorporation assay
Assay type: cell-based
condition context: NIH3T3; 3T3 cells expressing human PDGF-R, PDGF 3.8 nM; read-out: PDGF-Induced BrdU Incorp. IC50
quantity: IC50 (µM)

smiles_structure=CNC(=O)CCc1c(C=C2C(=O)Nc3ccccc32)[nH]c2c1CCCC2 comparator== reported_measurement=3.9
smiles_structure=O=C(O)CCc1c(C=C2C(=O)Nc3cc(Cl)ccc32)[nH]c2c1CCCC2 comparator== reported_measurement=3.7
smiles_structure=Cc1c[nH]c(C=C2C(=O)Nc3ccc(Br)cc32)c1CCC(=O)O comparator== reported_measurement=8.5
smiles_structure=O=C(O)CCc1c(C=C2C(=O)Nc3ccccc32)[nH]c2c1CCCC2 comparator== reported_measurement=2.9
smiles_structure=Cc1c[nH]c(C=C2C(=O)Nc3cc(Cl)ccc32)c1CCC(=O)O comparator== reported_measurement=7.9
smiles_structure=COc1ccc2c(c1)NC(=O)C2=Cc1[nH]cc(C)c1CCC(=O)O comparator== reported_measurement=8.7
smiles_structure=COc1ccc2c(c1)C(=Cc1[nH]cc(C)c1CCC(=O)O)C(=O)N2 comparator=> reported_measurement=50
smiles_structure=Cc1c[nH]c(C=C2C(=O)Nc3cccc(C)c32)c1CCC(=O)O comparator== reported_measurement=24.8
smiles_structure=Cc1c[nH]c(C=C2C(=O)Nc3ccccc32)c1CCC(=O)O comparator== reported_measurement=20
smiles_structure=COc1ccc2c(c1)NC(=O)C2=Cc1[nH]c2c(c1CCC(=O)O)CCCC2 comparator== reported_measurement=3
smiles_structure=O=C(CCc1c(C=C2C(=O)Nc3ccccc32)[nH]c2c1CCCC2)NCCN1CCOCC1 comparator== reported_measurement=5.2
smiles_structure=Cc1ccc2c(c1)C(=Cc1[nH]cc(C)c1CCC(=O)O)C(=O)N2 comparator== reported_measurement=11
smiles_structure=O=C1Nc2ccccc2C1=Cc1[nH]c2c(c1CCC(=O)N1CCOCC1)CCCC2 comparator== reported_measurement=8.6
smiles_structure=CN(C)CCCc1c(C=C2C(=O)Nc3ccccc32)[nH]c2c1CCCC2 comparator== reported_measurement=4.2
smiles_structure=O=C(O)CCc1c(C=C2C(=O)Nc3ccc(Br)cc32)[nH]c2c1CCCC2 comparator== reported_measurement=1.4
smiles_structure=Cc1cccc2c1C(=Cc1[nH]c3c(c1CCC(=O)O)CCCC3)C(=O)N2 comparator== reported_measurement=13.5
smiles_structure=Cc1ccc2c(c1)C(=Cc1[nH]c3c(c1CCC(=O)O)CCCC3)C(=O)N2 comparator== reported_measurement=14.2
smiles_structure=CN(C)C(=O)CCc1c(C=C2C(=O)Nc3ccccc32)[nH]c2c1CCCC2 comparator== reported_measurement=4.9
smiles_structure=NC(=O)CCc1c(C=C2C(=O)Nc3ccccc32)[nH]c2c1CCCC2 comparator== reported_measurement=3.5
